# System Tested: XCR1 (Homo sapiens, UniProt P46094)
# Construct: expressed in transfected cells
# Sequence (P46094 whole entry): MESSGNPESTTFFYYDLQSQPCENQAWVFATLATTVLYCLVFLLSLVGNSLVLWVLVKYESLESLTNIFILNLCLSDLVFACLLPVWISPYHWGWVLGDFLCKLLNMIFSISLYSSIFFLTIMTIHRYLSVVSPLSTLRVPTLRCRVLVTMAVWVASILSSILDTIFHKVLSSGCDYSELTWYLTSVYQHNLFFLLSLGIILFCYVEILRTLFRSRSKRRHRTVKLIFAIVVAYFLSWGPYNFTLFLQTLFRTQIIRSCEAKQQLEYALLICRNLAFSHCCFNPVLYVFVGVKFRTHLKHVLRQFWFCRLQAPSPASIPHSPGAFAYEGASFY
# Protocol: Figure S2a opioid peptide screen on chemokine receptors
# Assay type: cell-based
# Set-up: dose or concentration left out as unconfirmed
# Conditions Used: replicate 2, read-out: XCR1 activity, ctrl+ = 100
Starred links: 1 amine or outer side, 2 acyl side, 3 side chain; linkers in the order of their positions; H or OH if unused. Non-standard residues stand in square brackets, D forms with d. Residues, ends and D or L forms follow the SMILES beside them. X1 = N[C@@H](Cc1ccccc1)CN(CC(=O)[*:2])[*:1]
In this section we review reported activation values for a set of molecules.
Give the value in % but do not write % after it.

// solved cases for activation follow
- Molecule: "CC[C@H](C)[C@H](NC(=O)[C@H](CCCNC(=N)N)NC(=O)[C@H](CCCNC(=N)N)NC(=O)[C@H](CC(C)C)NC(=O)[C@H](Cc1ccccc1)NC(=O)CNC(=O)CNC(=O)[C@@H](N)Cc1ccc(O)cc1)C(=O)N[C@@H](CCCNC(=N)N)C(=O)N1CCC[C@H]1C(=O)N[C@@H](CCCCN)C(=O)N[C@@H](CC(C)C)C(=O)N[C@@H](CCCCN)C(=O)O"
  Value Units: "%"
  activation: -0.309
- Molecule: "CC(C)C[C@H](NC(=O)[C@H](CCCCN)NC(=O)[C@H](CCCN=C(N)N)NC(=O)[C@H](C)NC(=O)[C@H](CO)NC(=O)[C@H](CCCCN)NC(=O)[C@H](CCCN=C(N)N)NC(=O)[C@H](C)NC(=O)CNC(=O)[C@@H](NC(=O)[C@H](Cc1ccccc1)NC(=O)CNC(=O)CNC(=O)[C@@H](N)Cc1ccccc1)[C@@H](C)O)C(=O)N[C@@H](C)C(=O)N[C@@H](CC(N)=O)C(=O)N[C@@H](CCC(N)=O)C(=O)O"
  Value Units: "%"
  activation: -2.39
- Molecule: "CC[C@H](C)[C@H](NC(=O)[C@H](CCCNC(=N)N)NC(=O)[C@H](CCCNC(=N)N)NC(=O)[C@H](CC(C)C)NC(=O)[C@H](Cc1ccccc1)NC(=O)CNC(=O)CN)C(=O)N[C@@H](CCCNC(=N)N)C(=O)N1CCC[C@H]1C(=O)N[C@@H](CCCCN)C(=O)N[C@@H](CC(C)C)C(=O)N[C@@H](CCCCN)C(=O)N[C@@H](Cc1c[nH]c2ccccc12)C(=O)N[C@@H](CC(=O)O)C(=O)N[C@@H](CC(N)=O)C(=O)N[C@@H](CCC(N)=O)C(=O)O"
  Value Units: "%"
  activation: -3.46
- Molecule: "C[C@H](NC(=O)CNC(=O)[C@@H](NC(=O)[C@H](Cc1ccccc1)NC(=O)CNC(=O)CNC(=O)[C@@H](N)Cc1ccccc1)[C@@H](C)O)C(=O)N[C@@H](CCCNC(=N)N)C(=O)N[C@@H](CCCCN)C(=O)N[C@@H](CO)C(=O)N[C@@H](C)C(=O)N[C@@H](CCCNC(=N)N)C(=O)N[C@@H](CCCCN)C(N)=O"
  Value Units: "%"
  activation: 3.06

So for NC(=O)[C@H](Cc1ccccc1)NC(=O)[C@H](Cc1c[nH]c2ccccc12)NC(=O)[C@@H]1CCCN1C(=O)[C@@H](N)Cc1ccc(O)cc1 [Endomorphin-1] , the logged activation turned out to be 6.11

The reported activation of the molecule CC[C@H](C)[C@H](NC(=O)[C@H](CCCNC(=N)N)NC(=O)[C@H](CCCNC(=N)N)NC(=O)[C@H](CC(C)C)NC(=O)[C@H](Cc1ccccc1)NC(=O)CNC(=O)CNC(=O)[C@@H](N)Cc1ccc(O)cc1)C(=O)N[C@@H](CCCNC(=N)N)C(=O)N1CCC[C@H]1C(=O)N[C@@H](CCCCN)C(=O)N[C@@H](CC(C)C)C(=O)N[C@@H](CCCCN)C(=O)N[C@@H](Cc1c[nH]c2ccccc12)C(=O)N[C@@H](CC(=O)O)C(=O)N[C@@H](CC(N)=O)C(=O)N[C@@H](CCC(N)=O)C(=O)O was 7.1

activation for C[C@H](NC(=O)CNC(=O)[C@@H](NC(=O)[C@H](Cc1ccccc1)NC(=O)CNC(=O)CNC[C@@H](N)Cc1ccccc1)[C@@H](C)O)C(=O)N[C@@H](CCCNC(=N)N)C(=O)N[C@@H](CCCCN)C(=O)N[C@@H](CO)C(=O)N[C@@H](C)C(=O)N[C@@H](CCCNC(=N)N)C(=O)N[C@@H](CCCCN)C(N)=O [FG Nociceptin 1-13] (H-[X1]GFTGARKSARK-NH2) is 1.1
